# System: DLD-1
# PROTOCOL SUMMARY: MTS assay, DLD-1 cells
# Assay type: cell-based
# SETTINGS: Homo sapiens, 72 hours, read-out: DLD-1, MTS cell kill % inhibition
METRIC NAME: inhibition at 10 µM

Q) Reported inhibition at 10 µM for COc1ccc(CNC(=O)c2ccc3[nH]c(-c4ccc[nH]c4=O)c(-c4ccccc4)c3c2)cc1OC [Compound 32] : what is it?
A) 50 to 79%

Q) Reported inhibition at 10 µM for CN1CCN(C(=O)c2ccc3[nH]c(-c4ccc[nH]c4=O)c(-c4ccc(-c5ccccc5)cc4)c3c2)CC1 [Compound 52] : what is it?
A) 80 to 100%

Q) Reported inhibition at 10 µM for CN1CCC(N2CCN(C(=O)c3ccc4[nH]c(-c5ccc[nH]c5=O)c(-c5ccc(-c6ccccc6)cc5)c4c3)CC2)CC1 [Compound 50] : what is it?
A) 80 to 100%

Q) Reported inhibition at 10 µM for O=C(NCCCN1CCOCC1)c1ccc2[nH]c(-c3ccc[nH]c3=O)c(-c3cc(F)ccc3F)c2c1 [Compound 60] : what is it?
A) 50 to 79%

Q) Reported inhibition at 10 µM for COc1cccc(-c2c(-c3ccc[nH]c3=O)[nH]c3ccc(C(=O)NCCCN4CCOCC4)cc23)c1 [Compound 63] : what is it?
A) 50 to 79%

Q) Reported inhibition at 10 µM for O=c1[nH]cccc1-c1[nH]c2ccccc2c1C1CCN(Cc2ccccc2)CC1 [Compound 85] : what is it?
A) < 50%
